- System under test: SARS-CoV-2 M^PRO (Severe acute respiratory syndrome coronavirus 2)
- Assay overview: biochemical
- Format: biochemical
- Conditions used: In vitro potency data; 30 min pre-incubation, 25 nM M^pro, 25 µM substrate; read-out: IC50
I'd appreciate it if you marked entries TRUE when IC50 is lower than 1000 nM and FALSE when it is not.

Exercise: Does this compound meet the criterion IC50 < 1000 nM? O=C(NC1CCOCC1)C(c1cnccn1)N(C(=O)CCl)c1ccc(-c2cnco2)cc1 (centres unmarked) [INSCoV-600A(3)]
Solution: TRUE

Exercise: Does this compound meet the criterion IC50 < 1000 nM? N#Cc1cc(OC(F)(F)F)ccc1N(C(=O)[C@H](F)Cl)[C@@H](C(=O)NC1CCC(F)(F)CC1)c1cncnc1 (single isomer, unassigned) [INSCoV-517C(4)]
Solution: FALSE

Exercise: Does this compound meet the criterion IC50 < 1000 nM? CC(C)(C)c1ccc(N(C(=O)CCl)C(C(=O)NC2CCCCC2)c2cccnc2)cc1 (single isomer, unassigned) [INSCoV-110A(1)]
Solution: FALSE

Exercise: Does this compound meet the criterion IC50 < 1000 nM? O=C(NC1CCC(F)(F)CC1)C(c1cncnc1)N(CCc1cccc(F)c1)C(=O)C1CO1 (centres unmarked) [INSCoV-600Q]
Solution: FALSE

Exercise: Does this compound meet the criterion IC50 < 1000 nM? O=C(NC1CCC(F)(F)CC1)[C@H](c1cnccn1)N(C(=O)CCl)c1ccc(-c2ccno2)cc1 (racemic) [INSCoV-601H]
Solution: TRUE

Exercise: Does this compound meet the criterion IC50 < 1000 nM? O=C(NC1CCOCC1)C(c1cncnc1)N(C(=O)CCl)c1ccc(-c2cnco2)cc1 (centres unmarked) [INSCoV-600A(2)]
Solution: TRUE

Exercise: Does this compound meet the criterion IC50 < 1000 nM? CC(C)(C)c1ccc(N(C(=O)CCl)C(C(=O)NC2CCCCC2)c2ccnnc2)cc1 (centres unmarked) [INSCoV-537]
Solution: TRUE

Exercise: Does this compound meet the criterion IC50 < 1000 nM? Cc1cc(-c2cccnc2)cc(F)c1NC(=O)C(c1cncnc1)N(C(=O)CCl)c1ccc(-c2cnco2)cc1 (centres unmarked) [INSCoV-600X]
Solution: FALSE

Exercise: Does this compound meet the criterion IC50 < 1000 nM? CC(C)(C)c1ccc(N(C(=O)CCl)C(C)(C(=O)NC2CCCCC2)c2cccnc2)cc1 (centres unmarked) [INSCoV-538A]
Solution: TRUE

Exercise: Does this compound meet the criterion IC50 < 1000 nM? CC(C)(C)c1ccc(N(C(=O)CCl)[C@](C)(C(=O)NC2CCCCC2)c2cccnc2)cc1 [INSCoV-538A(2)]
Solution: FALSE

Exercise: Does this compound meet the criterion IC50 < 1000 nM? CNC(=O)c1cc(C)c(NC(=O)C(c2cncnc2)N(C(=O)CCl)c2ccc(-c3cnco3)cc2)c(Cl)c1 (centres unmarked) [INSCoV-6000]
Solution: FALSE

Exercise: Does this compound meet the criterion IC50 < 1000 nM? O=C(NC1CCCCC1)C(c1cccnc1)N(CCc1c[nH]c2ccncc12)C(=O)CCl (centres unmarked) [INSCoV-516]
Solution: FALSE

Exercise: Does this compound meet the criterion IC50 < 1000 nM? N#Cc1cc(OC(F)(F)F)ccc1N(C(=O)CCl)[C@@H](C(=O)NC1CCCCC1)c1cccnc1 [INSCoV-517(1)]
Solution: TRUE

Exercise: Does this compound meet the criterion IC50 < 1000 nM? N#Cc1cc(OC(F)(F)F)ccc1N(C(=O)C(F)Cl)C(C(=O)NC1CCC(F)(F)CC1)c1cncnc1 (single isomer, unassigned) [INSCoV-517C(3)]
Solution: TRUE

Exercise: Does this compound meet the criterion IC50 < 1000 nM? O=C(N[C@@H]1CCOC1)[C@H](c1cncnc1)N(C(=O)CCl)c1ccc(-c2cnco2)cc1 [INSCoV-600C(2A)]
Solution: TRUE

Exercise: Does this compound meet the criterion IC50 < 1000 nM? O=C(NC1CCC(F)(F)CC1)[C@H](c1cncnc1)N(C(=O)[C@H](F)Cl)c1ccc(-c2cncs2)cc1 (single isomer, unassigned) [INSCoV-614(2A)]
Solution: FALSE

Exercise: Does this compound meet the criterion IC50 < 1000 nM? O=C(NC1CC(F)(F)C1)C(c1cncnc1)N(C(=O)CCl)c1ccc(-c2cnco2)cc1 (centres unmarked) [INSCoV-600D]
Solution: TRUE

Exercise: Does this compound meet the criterion IC50 < 1000 nM? CC(C)(C)c1ccc(N(C(=O)CCl)C(C(=O)NC2CCCCC2)c2c[nH]c3ncccc23)cc1 (centres unmarked) [INSCoV-549]
Solution: FALSE

Exercise: Does this compound meet the criterion IC50 < 1000 nM? O=C(NC1CCC(F)(F)CC1)C(c1cnccn1)N(C(=O)CCl)c1ccc(-c2cncs2)cc1 (centres unmarked) [INSCoV-601G]
Solution: TRUE

Exercise: Does this compound meet the criterion IC50 < 1000 nM? O=C(NC1CCC(F)(F)CC1)C(c1cncnc1)N(C(=O)[C@@H]1CO1)c1ccc(-c2cnco2)cc1 (some centres unmarked) [INSCoV-600R(2)]
Solution: FALSE

Exercise: Does this compound meet the criterion IC50 < 1000 nM? O=C(NC1CC2(C1)CC(F)(F)C2)C(c1cncnc1)N(C(=O)CCl)c1ccc(-c2cnco2)cc1 (centres unmarked) [INSCoV-600F]
Solution: TRUE

Exercise: Does this compound meet the criterion IC50 < 1000 nM? CN1CCC(NC(=O)C(c2cncnc2)N(C(=O)CCl)c2ccc(-c3cnco3)cc2)CC1 (centres unmarked) [INSCoV-600M]
Solution: TRUE

Exercise: Does this compound meet the criterion IC50 < 1000 nM? O=C(NC1CCC(F)(F)CC1)C(c1cncnc1)N(C(=O)CCl)c1ccc(-c2cncs2)cc1 (centres unmarked) [INSCoV-600K]
Solution: TRUE

Exercise: Does this compound meet the criterion IC50 < 1000 nM? O=C(NC1CCC(F)(F)CC1)[C@@H](c1cncnc1)N(C(=O)[C@@H]1CO1)c1ccc(-c2cnco2)cc1 [INSCoV-600R(2B)]
Solution: FALSE

Exercise: Does this compound meet the criterion IC50 < 1000 nM? O=C(NC1CCOC1)C(c1cncnc1)N(C(=O)CCl)c1ccc(-c2cnco2)cc1 (centres unmarked) [INSCoV-600C]
Solution: TRUE

Exercise: Does this compound meet the criterion IC50 < 1000 nM? O=C(NC1CCCCC1)C(c1cccnc1)N(Cc1cccc(C(F)(F)F)c1)C(=O)CCl (centres unmarked) [INSCoV-574]
Solution: FALSE

Exercise: Does this compound meet the criterion IC50 < 1000 nM? Cc1ccc(S(=O)(=O)CNC(=O)C(c2cnccn2)N(C(=O)CCl)c2ccc(-c3cnco3)cc2)cc1 (centres unmarked) [INSCoV-501O]
Solution: FALSE

Exercise: Does this compound meet the criterion IC50 < 1000 nM? O=C(NC1CCCCC1)C(c1cccnc1)N(C(=O)CCl)c1ccc2ccoc2c1 (centres unmarked) [INSCoV-576]
Solution: FALSE

Exercise: Does this compound meet the criterion IC50 < 1000 nM? O=C(NC1CCOC1)[C@H](c1cncnc1)N(C(=O)CCl)c1ccc(-c2cncs2)cc1 (some centres unmarked) [INSCoV-601R]
Solution: TRUE

* * *

- Assay overview: Caco-2 permeability
- Type: in vitro ADME
- Conditions used: human, Caco-2, pH 7.4
Reported property: efflux ratio at 2 h, 2 µM

The compound listed as CC(C(=O)NC1CCC(F)(F)CC1)(c1cncnc1)N(C(=O)CCl)c1ccc(-c2ccno2)cc1 (single isomer, unassigned) [INSCoV-601P(1A)] shows efflux ratio at 2 h, 2 µM equal to > 0.489

* * *

- System under test: SARS-CoV-2 M^PRO (Severe acute respiratory syndrome coronavirus 2, UniProt P0DTD1)
- Assay overview: biochemical
- Format: biochemical
- Conditions used: In vitro potency data; 30 min pre-incubation, 25 nM M^pro, 25 µM substrate; read-out: IC50
Provide the reported IC50 of each item.
Field: numeric (nM). Do not append units.

Tested on SARS-CoV-2 M^PRO (Severe acute respiratory syndrome coronavirus 2, UniProt P0DTD1), the item O=C(NC1CCC(F)(F)CC1)[C@H](c1cncnc1)N(CCc1cccc(F)c1)C(=O)C1CO1 (stereo partly drawn) [INSCoV-600Q(1)] showed IC50 equal to 22600

Tested on SARS-CoV-2 M^PRO (Severe acute respiratory syndrome coronavirus 2, UniProt P0DTD1), the item C=C(F)C(=O)N(c1ccc(-c2cncs2)cc1)C(C(=O)NC1CCC(F)(F)CC1)c1cncnc1 (stereo not drawn) showed IC50 equal to 8360

Tested on SARS-CoV-2 M^PRO (Severe acute respiratory syndrome coronavirus 2, UniProt P0DTD1), the item O=C(NC1CCC(F)(F)CC1)C(c1cncnc1)N(C(=O)C1CO1)c1ccc(-c2ccno2)cc1 (stereo not drawn) [INSCoV-600Y] showed IC50 equal to 1990

Tested on SARS-CoV-2 M^PRO (Severe acute respiratory syndrome coronavirus 2, UniProt P0DTD1), the item O=C(NC1CCC(F)(F)CC1)C(c1cnccn1)N(C(=O)CCl)c1ccc(-c2ccns2)cc1 (stereo not drawn) [INSCoV-601I] showed IC50 equal to 62

Tested on SARS-CoV-2 M^PRO (Severe acute respiratory syndrome coronavirus 2, UniProt P0DTD1), the item O=C(NC1CCC(F)(F)CC1)[C@@H](c1cncnc1)N(C(=O)CCl)c1ccc(-c2ccns2)cc1 showed IC50 equal to 60

Tested on SARS-CoV-2 M^PRO (Severe acute respiratory syndrome coronavirus 2, UniProt P0DTD1), the item N#Cc1cc(OC(F)(F)F)ccc1N(C(=O)CCl)C(C(=O)NC1CCC(F)(F)CC1)c1cnccn1 (stereo not drawn) [INSCoV-517B] showed IC50 equal to 170

Tested on SARS-CoV-2 M^PRO (Severe acute respiratory syndrome coronavirus 2, UniProt P0DTD1), the item N#Cc1cc(OC(F)(F)F)ccc1N(C(=O)CCl)C(C(=O)NC1CCC(F)(F)CC1)c1cncnc1 (single isomer, unassigned) [INSCoV-517A(1B)] showed IC50 equal to 3250

Tested on SARS-CoV-2 M^PRO (Severe acute respiratory syndrome coronavirus 2, UniProt P0DTD1), the item O=C(NCCc1ccccc1)C(c1cnccn1)N(C(=O)CCl)c1ccc(-c2cnco2)cc1 (stereo not drawn) [INSCoV-501P] showed IC50 equal to 560

Tested on SARS-CoV-2 M^PRO (Severe acute respiratory syndrome coronavirus 2, UniProt P0DTD1), the item O=C(NC1CCC(F)(F)CC1)[C@H](c1cncnc1)N(C(=O)CCl)c1ccc(-c2ccns2)cc1 showed IC50 equal to 190
